Attribute: LogEC50
# Target Or Test System: T1, human G-protein-coupled receptor family C group 5 member D (GPRC5D) (human, UniProt Q9NZD1 1-345)
# T1 construct: whole, on cells; also called human GPRC5D protein
# T1 sequence (Q9NZD1 whole entry): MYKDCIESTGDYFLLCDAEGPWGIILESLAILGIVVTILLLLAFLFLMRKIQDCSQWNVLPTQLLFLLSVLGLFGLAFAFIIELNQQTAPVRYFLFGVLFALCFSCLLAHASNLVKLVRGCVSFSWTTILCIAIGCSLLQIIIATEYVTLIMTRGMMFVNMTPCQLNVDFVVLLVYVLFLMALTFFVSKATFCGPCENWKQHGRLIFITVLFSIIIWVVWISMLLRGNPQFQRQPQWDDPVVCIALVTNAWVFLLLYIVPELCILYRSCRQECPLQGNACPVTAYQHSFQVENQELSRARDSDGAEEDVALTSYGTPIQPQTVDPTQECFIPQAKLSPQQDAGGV
# Assay Protocol: FACS, CHO-K1/GPRC5D
Outcome Measure: LogEC50

37-H2L3 (antibody, V domains shown, humanized 37B9C4, VH v2 x VL v3) VH: EVQLVESGGGLVQPGGSLRLSCAASGFTFSDYWMNWVRQSPGKGLEWVAEIRLKSNNYATHYAESVKGRFTISRDNAKSSLYLQMNSLRAEDTAVYYCTRPLLWFRRYYAMDYWGQGTLVTVSS VL: DIQMTQSPSSLSASVGDRITITCSASQGISNYLNWYQQKPGKTVKLLIYYTSSLHSGVPSRFSGSGSGTDYTLTISSLQPEDFATYYCQQYSKLPFTFGSGTKLEIK | 0.333
37-H3L3 (antibody, V domains shown, humanized 37B9C4, VH v3 x VL v3) VH: EVQLVESGGGLVQPGGSLRLSCAASGFTFSDYWMNWVRQSPGKGLEWVAEIRLKSNNYATHYAESVKGRFTISRDDSKSSVYLQMNSLRAEDTAVYYCTRPLLWFRRYYAMDYWGQGTLVTVSS VL: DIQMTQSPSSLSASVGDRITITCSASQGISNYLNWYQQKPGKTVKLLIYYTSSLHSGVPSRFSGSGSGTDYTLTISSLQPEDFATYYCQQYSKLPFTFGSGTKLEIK | 0.285

The reported numbers originate from patent US12281162.
